I'd appreciate it if you could supply TGI values for the items below.
tested on: RPMI-8226 leukemia; experiment: NCI tumour cell line growth inhibition, 48 h

Please give the measured TGI for this compound: O=C(CO)CC(=O)C(=O)Nc1nc([N+](=O)[O-])cs1
> 100 µM

Please look up its TGI: CC1C[C@H](OC(N)=O)C(C)CC1=O (some centres undefined)
> 100 µM

// TGI lookup, key: CC(C)CCOc1ccc(-c2n[nH]c(C(F)(F)F)c2-c2cncc(C#N)c2)c(O)c1
4.65 µM

For the compound shown here, COC(=O)C1=C(C(=O)OC)C2(OC(C)=O)c3ccccc3-c3ccccc3C12 (centres undefined) , give the reported TGI.
6.56 µM

Form field: reported TGI of CCn1c2c(n(CC)c1=S)-c1c(n(CC)c(=S)n1CC)SSSS2
9.34 µM

Which value of TGI has been reported for O=C1OCC(c2cccs2)=C1Cl in the records?
> 100 µM

Can you share its TGI? I mean this compound: CSC(C1c2ccccc2N(C)C2=NC(=O)N(C)C(=O)C21Cl)S(=O)(=O)c1ccc(C)cc1 (centres undefined)
57.8 µM

Name the reported TGI value associated with the compound O=P(O)(O)c1ccccc1 (tested in a mixture with another compound)
> 100 µM

So what's the measured TGI for this one? CCNC1(c2cccc(C)c2)OC(C)(C)c2cccc3cccc1c23 (centres undefined)
15.8 µM

Which TGI reading was recorded for the compound COc1ccc2oc3c4c2c1CCC4CCC3=O (centres undefined) ?
> 100 µM

Which TGI reading was recorded for the compound COc1cc(-c2oc3c(OC)c(O)c(OC)c(O)c3c(=O)c2OC)cc(O)c1OC ?
> 100 µM

Entry under review: Clc1ccc(SCCSCCCCCCCCCCSCCSc2ccc(Cl)cc2)cc1 . Reported TGI?
> 100 µM

Recorded TGI for COCC1OC(OC2C3=C(C(C)C)CCC3(C)/C=C3\C(CCC3(O)COC)C(C)C2O)C(O)C2OC3OC12OC3(C)C1CO1 (centres undefined) , please?
> 100 µM

TGI lookup needed for C[C@]12CCC[C@H](Cl)C1(O)C[C@H](C(=O)O)CC2 (some centres undefined) , thanks.
> 100 µM

Name the recorded TGI for CCSCC(N)C(=O)O (centres undefined) .
> 100 µM

Item under review: O=c1[nH]c(Nc2cccc(C(F)(F)F)c2)nc2nc[nH]c12 . Reported TGI?
> 100 µM

For the compound CC(OC(=O)NCn1cc(-c2ccccc2)nn1)c1ccccc1 (centres undefined) , what TGI is on record?
> 100 µM

Which TGI reading was recorded for the compound CCOC(=O)C(=O)Nc1c(F)cc(F)cc1Br ?
> 100 µM

Can you share its TGI? I mean this compound: NC(CSC(c1ccccc1)(c1ccccc1)c1ccc(Cl)cc1)C(=O)O (centres undefined)
21.5 µM

---

tested on: DU-145 prostate; assay: NCI tumour cell line growth inhibition, 48 h; in the data active = GI50 below about 0.43 µM; inactive = the rest
Please answer using one outcome listed in active, inactive

Please share the test call associated with Cc1cc2cc3cc(C)c(N(C)C)cc3nc2cc1N(C)C .
inactive

Recorded test call requested for CCOC(=O)c1sc2nc3sc(N=Nc4ccc(Cl)cc4)c(O)n3c(=S)c2c1C
inactive

Hi, do you know how CC(=O)Nc1ccc(Sc2ccc([N+](=O)[O-])o2)cc1 came out in this test?
inactive

Fill in: this test's call for CN(C)c1ccc(C(=C2C=CC(=[N+](C)C)C=C2)c2ccc(N(C)C)cc2)cc1 (tested in a mixture with another compound) is ___
active

Can you look up the reported call for NC(=NCCCOc1ccc(Cl)cc1)Nc1ccc(Cl)cc1 for me?
inactive

How did this test come out for NC(CSC(c1ccccc1)(c1ccccc1)c1ccc(Cl)cc1)C(=O)O (stereo unspecified) ?
active

Per the records of this test, what outcome belongs to OCCCN=NNc1ccc(-c2nc3ccccc3[nH]2)cc1 ?
inactive

Kindly provide the recorded test outcome for the following compound: N=C(N)c1ccc(-c2ccc(-c3ccc(Cl)cc3Cl)s2)cc1F
inactive

Which outcome was entered for the compound COC(=O)c1ccc2c(c1)nc(-c1cc3ccccc3[nH]c1=O)n2-c1cc(C(C)(C)C)[nH]n1 in this test?
inactive

I would be grateful if you could indicate the recorded call for O=C1C(Br)=CC2(C=C1Br)CCN=c1c2c(O)c2nc3ccccc3c3ccnc1c23 .
inactive

For this compound, state the assay outcome: Cc1nc2sccn2c(=O)c1CCN1CCC(=C(c2ccc(F)cc2)c2ccc(F)cc2)CC1
inactive
